experimental.protocol: Half life of the compound in phosphate buffer at pH 7.4 at 37 degC after 24 hrs by UPLC method
Assay type: physicochemical
reported.property: half-life (h)

| query.smiles | reported.property | observed.value |
| --- | --- | --- |
| COC(=O)N[C@H](C(=O)NN(Cc1ccc(-c2ccccn2)cc1)C[C@H](OC(=O)[C@@H](NC(=O)OC)C(C)(C)C)[C@H](Cc1ccccc1)NC(=O)OCOC(=O)[C@@H](N)C(C)C)C(C)(C)C.Cl.Cl | half-life | 1.8 |

---

experimental.protocol: Half life in rat hepatocytes at 1 uM after 5 to 120 mins by UPLC-MS/MS method
Type: ADME, cell-based, Hepatocyte
# reported half-life at 1 µM; entries follow

| compound | half-life at 1 µM |
| --- | --- |
| COC(=O)N[C@H](C(=O)NN(Cc1ccc(-c2ccccn2)cc1)C[C@H](OC(=O)[C@@H](NC(=O)OC)C(C)(C)C)[C@H](Cc1ccccc1)NC(=O)OC(OC(=O)[C@H](N)C(C)C)C(C)C)C(C)(C)C.Cl.Cl (stereo partly drawn) | 53 min |
| COC(=O)N[C@H](C(=O)NN(Cc1ccc(-c2ccccn2)cc1)C[C@H](OC(=O)[C@@H](NC(=O)OC)C(C)(C)C)[C@H](Cc1ccccc1)NC(=O)OCc1oc(=O)oc1C)C(C)(C)C | < 5 min |
| COC(=O)N[C@H](C(=O)NN(Cc1ccc(-c2ccccn2)cc1)C[C@H](OC(=O)[C@@H](NC(=O)OC)C(C)(C)C)[C@H](Cc1ccccc1)NC(=O)OCOC(=O)[C@@H](N)C(C)C)C(C)(C)C.Cl.Cl | < 5 min |

---

experimental.protocol: AUC (0 to 24 hrs) in Sprague-Dawley rat at 10 mg/kg, po by UPLC/MS/MS method
Type: ADME, organism-based
Parameters: dose 10 mg/kg, time < 24 hr, route oral
protocol.conditions: in vivo

| molecule | unit.symbol | AUC(0-t) at 24 h |
| --- | --- | --- |
| COC(=O)N[C@H](C(=O)N[C@@H](Cc1ccccc1)[C@@H](O)CN(Cc1ccc(-c2ccccn2)cc1)NC(=O)[C@@H](NC(=O)OC)C(C)(C)C)C(C)(C)C [ATAZANAVIR] | µM·h | 0.24 |

---

# reported AUClast; entries follow
Test system: Rattus norvegicus
experimental.protocol: AUClast in Sprague-Dawley rat assessed as atazanavir at 3 mg/kg, po equiv of atazanavir after 0.25 to 24 hrs by UPLC/MS/MS method
Format: ADME, organism-based
Parameters: time upper 24 hr, dose 3 mg/kg, time lower 0.25 hr, route oral
protocol.conditions: in vivo
reported.property: AUClast (µM·h)

| compound | observed.value |
| --- | --- |
| COC(=O)N[C@H](C(=O)NN(Cc1ccc(-c2ccccn2)cc1)C[C@H](OC(=O)[C@@H](NC(=O)OC)C(C)(C)C)[C@H](Cc1ccccc1)NC(=O)OCOC(=O)[C@@H](N)C(C)C)C(C)(C)C.Cl.Cl | 0.083 |
| COC(=O)N[C@H](C(=O)NN(Cc1ccc(-c2ccccn2)cc1)C[C@H](OC(=O)[C@@H](NC(=O)OC)C(C)(C)C)[C@H](Cc1ccccc1)NC(=O)OC(OC(=O)[C@H](N)C(C)C)C(C)C)C(C)(C)C.Cl.Cl (stereo not given in full) | 0.167 |
| COC(=O)N[C@H](C(=O)NN(Cc1ccc(-c2ccccn2)cc1)C[C@H](OC(=O)[C@@H](NC(=O)OC)C(C)(C)C)[C@H](Cc1ccccc1)NC(=O)OC(OC(=O)[C@@H](N)C(C)C)C(C)C)C(C)(C)C.Cl.Cl (stereo not given in full) | 1.446 |
| COC(=O)N[C@H](C(=O)NN(Cc1ccc(-c2ccccn2)cc1)C[C@H](OC(=O)[C@@H](NC(=O)OC)C(C)(C)C)[C@@H](N)Cc1ccccc1)C(C)(C)C.Cl.Cl | 0.016 |
| COC(=O)N[C@H](C(=O)NN(Cc1ccc(-c2ccccn2)cc1)C[C@H](OC(=O)[C@@H](NC(=O)OC)C(C)(C)C)[C@H](Cc1ccccc1)NC(=O)OCc1oc(=O)oc1C)C(C)(C)C | 0.194 |

---

# reported efflux ratio; entries follow
experimental.protocol: Efflux ratio of apparent permeability across basolateral to apical over apical to basolateral side in human Caco2 cells
Assay type: ADME, cell-based
protocol.conditions: Caco-2

| molecule | efflux ratio |
| --- | --- |
| COC(=O)N[C@H](C(=O)NN(Cc1ccc(-c2ccccn2)cc1)C[C@H](OC(=O)[C@@H](NC(=O)OC)C(C)(C)C)[C@@H](N)Cc1ccccc1)C(C)(C)C.Cl.Cl | 15 |
| COC(=O)N[C@H](C(=O)NN(Cc1ccc(-c2ccccn2)cc1)C[C@H](OC(=O)[C@@H](NC(=O)OC)C(C)(C)C)[C@H](Cc1ccccc1)NC(=O)OC(OC(=O)[C@@H](N)C(C)C)C(C)C)C(C)(C)C.Cl.Cl (some centres undefined) | > 8 |
| COC(=O)N[C@H](C(=O)NN(Cc1ccc(-c2ccccn2)cc1)C[C@H](OC(=O)[C@@H](NC(=O)OC)C(C)(C)C)[C@H](Cc1ccccc1)NC(=O)OC(OC(=O)[C@H](N)C(C)C)C(C)C)C(C)(C)C.Cl.Cl (some centres undefined) | > 5 |
| COC(=O)N[C@H](C(=O)N[C@@H](Cc1ccccc1)[C@@H](O)CN(Cc1ccc(-c2ccccn2)cc1)NC(=O)[C@@H](NC(=O)OC)C(C)(C)C)C(C)(C)C | > 31 |

---

experimental.protocol: Half life of the compound in 0.1 N aqueous HCl at pH 1 at 37 degC after 24 hrs by UPLC method
Assay type: physicochemical
reported.property: half-life

| compound | observed.value |
| --- | --- |
| COC(=O)N[C@H](C(=O)NN(Cc1ccc(-c2ccccn2)cc1)C[C@H](OC(=O)[C@@H](NC(=O)OC)C(C)(C)C)[C@H](Cc1ccccc1)NC(=O)OC(OC(=O)[C@@H](N)C(C)C)C(C)C)C(C)(C)C.Cl.Cl (stereo partly specified) | > 20.8 days |
| COC(=O)N[C@H](C(=O)NN(Cc1ccc(-c2ccccn2)cc1)C[C@H](OC(=O)[C@@H](NC(=O)OC)C(C)(C)C)[C@H](Cc1ccccc1)NC(=O)OC(OC(=O)[C@H](N)C(C)C)C(C)C)C(C)(C)C.Cl.Cl (stereo partly specified) | > 20.8 days |
| COC(=O)N[C@H](C(=O)N[C@@H](Cc1ccccc1)[C@@H](O)CN(Cc1ccc(-c2ccccn2)cc1)NC(=O)[C@@H](NC(=O)OC)C(C)(C)C)C(C)(C)C | > 20.8 days |
| COC(=O)N[C@H](C(=O)NN(Cc1ccc(-c2ccccn2)cc1)C[C@H](OC(=O)[C@@H](NC(=O)OC)C(C)(C)C)[C@H](Cc1ccccc1)NC(=O)OCOC(=O)[C@@H](N)C(C)C)C(C)(C)C.Cl.Cl | > 20.8 days |
| COC(=O)N[C@H](C(=O)NN(Cc1ccc(-c2ccccn2)cc1)C[C@H](OC(=O)[C@@H](NC(=O)OC)C(C)(C)C)[C@@H](N)Cc1ccccc1)C(C)(C)C.Cl.Cl | 15.7 days |
| COC(=O)N[C@H](C(=O)NN(Cc1ccc(-c2ccccn2)cc1)C[C@H](OC(=O)[C@@H](NC(=O)OC)C(C)(C)C)[C@H](Cc1ccccc1)NC(=O)OCc1oc(=O)oc1C)C(C)(C)C | > 20.8 days |

---

System: Rattus norvegicus
experimental.protocol: Oral bioavailability in Sprague-Dawley rat assessed as atazanavir at 3 mg/kg equiv of atazanavir after 0.25 to 24 hrs by UPLC/MS/MS method relative to atazanavir
Type: ADME, organism-based
protocol.conditions: in vivo
reported.property: F (%)

| compound | measured.on | observed.value |
| --- | --- | --- |
| COC(=O)N[C@H](C(=O)NN(Cc1ccc(-c2ccccn2)cc1)C[C@H](OC(=O)[C@@H](NC(=O)OC)C(C)(C)C)[C@H](Cc1ccccc1)NC(=O)OCc1oc(=O)oc1C)C(C)(C)C | Rattus norvegicus | 10.1 |
| COC(=O)N[C@H](C(=O)NN(Cc1ccc(-c2ccccn2)cc1)C[C@H](OC(=O)[C@@H](NC(=O)OC)C(C)(C)C)[C@@H](N)Cc1ccccc1)C(C)(C)C.Cl.Cl | Rattus norvegicus | 0.83 |
| COC(=O)N[C@H](C(=O)NN(Cc1ccc(-c2ccccn2)cc1)C[C@H](OC(=O)[C@@H](NC(=O)OC)C(C)(C)C)[C@H](Cc1ccccc1)NC(=O)OCOC(=O)[C@@H](N)C(C)C)C(C)(C)C.Cl.Cl | Rattus norvegicus | 4.3 |
| COC(=O)N[C@H](C(=O)NN(Cc1ccc(-c2ccccn2)cc1)C[C@H](OC(=O)[C@@H](NC(=O)OC)C(C)(C)C)[C@H](Cc1ccccc1)NC(=O)OC(OC(=O)[C@H](N)C(C)C)C(C)C)C(C)(C)C.Cl.Cl (stereo not given in full) | Rattus norvegicus | 8.7 |
| COC(=O)N[C@H](C(=O)NN(Cc1ccc(-c2ccccn2)cc1)C[C@H](OC(=O)[C@@H](NC(=O)OC)C(C)(C)C)[C@H](Cc1ccccc1)NC(=O)OC(OC(=O)[C@@H](N)C(C)C)C(C)C)C(C)(C)C.Cl.Cl (stereo not given in full) | Rattus norvegicus | 75.3 |

// data source = ChEMBL document CHEMBL4184322
